Species: Homo sapiens
Experiment: Liver toxicity in human assessed as induction of drug-induced liver injury by measuring verified drug-induced liver injury concern status

>  <compound>
Cc1cccc(CN2CCN(C(c3ccccc3)c3ccc(Cl)cc3)CC2)c1 (stereo not given)

>  <DILI_Concern>
No-Dili-Concern

$$$$
>  <compound>
Cc1ncc(CO)c(CO)c1O

>  <DILI_Concern>
No-Dili-Concern

$$$$
>  <compound>
Cc1nc([N+](=O)[O-])cn1-c1ccc([N+](=O)[O-])cc1

>  <DILI_Concern>
Most-Dili-Concern

$$$$
>  <compound>
CCc1oc2ccccc2c1C(=O)c1ccc(O)cc1

>  <DILI_Concern>
Most-Dili-Concern

$$$$
